- procedure summary: Plasma pharmacokinetics of BI 187004 after single oral doses (LC–MS/MS)
- assay context: male, human, plasma, po, 360 mg
attribute measured: AUC(0-t) (µM·h)
Please give a number only; it is taken to be in µM·h.

-- ask I would be grateful if you could share the reported AUC(0-t) for N#Cc1ccc2c(c1)[C@H]1CCCN(C(=O)c3ccc4[nH]cnc4c3)[C@H]1C2 .
-- reply 135

###

- procedure summary: Plasma pharmacokinetics of BI 187004 after single oral doses (LC–MS/MS)
- assay context: male, human, plasma, po, 40 mg
attribute measured: Vd/F
The answer should read as a number with its unit following.

-- ask State the recorded Vd/F for this entry: N#Cc1ccc2c(c1)[C@H]1CCCN(C(=O)c3ccc4[nH]cnc4c3)[C@H]1C2
-- reply 123 L

###

- procedure summary: Plasma pharmacokinetics of BI 187004 after single oral doses (LC–MS/MS)
- assay context: male, human, plasma, po, 40 mg, BI 187004 plasma concentrations, 40 mg single oral, planned time 8 h, Mean
attribute measured: concentration at 8 h (nM)
Answer format: numeric, nM implied, no suffix.

-- ask Dear colleague, I am looking for the recorded concentration at 8 h of the following compound: N#Cc1ccc2c(c1)[C@H]1CCCN(C(=O)c3ccc4[nH]cnc4c3)[C@H]1C2 [BI 187004]
-- reply 951

###

- procedure summary: Plasma pharmacokinetics of BI 187004 after single oral doses (LC–MS/MS)
- assay context: male, human, plasma, po, 160 mg, BI 187004 plasma concentrations, 160 mg single oral, planned time 2.5 h, individual subjects
attribute measured: concentration at 2.5 h (µM)
Output spec: scalar in µM, unitless text.

-- ask Which concentration at 2.5 h is reported for this compound? N#Cc1ccc2c(c1)[C@H]1CCCN(C(=O)c3ccc4[nH]cnc4c3)[C@H]1C2 [BI 187004]
-- reply 6.93

###

- procedure summary: Plasma pharmacokinetics of BI 187004 after single oral doses (LC–MS/MS)
- assay context: male, human, plasma, po, 360 mg, BI 187004 plasma concentrations, gMean, 360 mg single oral, planned time 1 h
attribute measured: concentration at 1 h
The reply must contain the numeric value and, after it, the unit.

-- ask So what does the record say about concentration at 1 h for N#Cc1ccc2c(c1)[C@H]1CCCN(C(=O)c3ccc4[nH]cnc4c3)[C@H]1C2 [BI 187004] ?
-- reply 12.6 µM

###

- procedure summary: Plasma pharmacokinetics of BI 187004 after single oral doses (LC–MS/MS)
- assay context: male, human, plasma, po, 360 mg, BI 187004 plasma concentrations, Min, 360 mg single oral, planned time 0.5 h
attribute measured: concentration at 0.5 h (µM)
The figure you give is taken to be in µM; do not add the unit.

-- ask What value of concentration at 0.5 h has been reported for the following compound? N#Cc1ccc2c(c1)[C@H]1CCCN(C(=O)c3ccc4[nH]cnc4c3)[C@H]1C2 [BI 187004]
-- reply 5.8

###

- procedure summary: Plasma pharmacokinetics of BI 187004 after single oral doses (LC–MS/MS)
- assay context: male, human, plasma, po, 40 mg, BI 187004 plasma concentrations, 40 mg single oral, planned time 48 h, Median
attribute measured: concentration at 48 h (nM)
Numeric only. Scale: nM

-- ask What does the data say about its concentration at 48 h? Entry: N#Cc1ccc2c(c1)[C@H]1CCCN(C(=O)c3ccc4[nH]cnc4c3)[C@H]1C2
-- reply 66.2

###

- procedure summary: Plasma pharmacokinetics of BI 187004 after single oral doses (LC–MS/MS)
- assay context: male, human, plasma, po, 40 mg, BI 187004 plasma concentrations, 40 mg single oral, planned time 10 h, Mean
attribute measured: concentration at 10 h

-- ask // lookup concentration at 10 h for N#Cc1ccc2c(c1)[C@H]1CCCN(C(=O)c3ccc4[nH]cnc4c3)[C@H]1C2 [BI 187004]
-- reply 825 nM

###

- procedure summary: Plasma pharmacokinetics of BI 187004 after single oral doses (LC–MS/MS)
- assay context: male, human, plasma, po, 240 mg, BI 187004 plasma concentrations, gMean, 240 mg single oral, planned time 48 h
attribute measured: concentration at 48 h (nM)
# unit: nM | format: bare number

-- ask // lookup concentration at 48 h for N#Cc1ccc2c(c1)[C@H]1CCCN(C(=O)c3ccc4[nH]cnc4c3)[C@H]1C2
-- reply 465

###

- procedure summary: Plasma pharmacokinetics of BI 187004 after single oral doses (LC–MS/MS)
- assay context: male, human, plasma, po, 240 mg, BI 187004 plasma concentrations, 240 mg single oral, planned time 24 h, individual subjects
attribute measured: concentration at 24 h
Show the value, then the unit it is measured in.

-- ask What value of concentration at 24 h has been recorded for this entry: N#Cc1ccc2c(c1)[C@H]1CCCN(C(=O)c3ccc4[nH]cnc4c3)[C@H]1C2
-- reply 2180 nM

###

- procedure summary: Plasma pharmacokinetics of BI 187004 after single oral doses (LC–MS/MS)
- assay context: male, human, plasma, po, 40 mg, BI 187004 plasma concentrations, 40 mg single oral, planned time 36 h, Max
attribute measured: concentration at 36 h (nM)
Answer format: numeric, nM implied, no suffix.

-- ask Request the reported concentration at 36 h associated with N#Cc1ccc2c(c1)[C@H]1CCCN(C(=O)c3ccc4[nH]cnc4c3)[C@H]1C2
-- reply 377

###

- procedure summary: Plasma pharmacokinetics of BI 187004 after single oral doses (LC–MS/MS)
- assay context: male, human, plasma, po, 40 mg, BI 187004 plasma concentrations, 40 mg single oral, planned time 3 h, individual subjects
attribute measured: concentration at 3 h (nM)
Return type: number; implicit unit nM.

-- ask Which concentration at 3 h value is on record for N#Cc1ccc2c(c1)[C@H]1CCCN(C(=O)c3ccc4[nH]cnc4c3)[C@H]1C2 [BI 187004] ?
-- reply 1680

###

- procedure summary: Plasma pharmacokinetics of BI 187004 after single oral doses (LC–MS/MS)
- assay context: male, human, plasma, po, 40 mg, BI 187004 plasma concentrations, 40 mg single oral, planned time 10 h, gMean
attribute measured: concentration at 10 h (nM)
Kindly answer with a numeric value in nM, unit omitted.

-- ask Endpoint output: concentration at 10 h of N#Cc1ccc2c(c1)[C@H]1CCCN(C(=O)c3ccc4[nH]cnc4c3)[C@H]1C2 [BI 187004] . Value?
-- reply 796

###

- procedure summary: Plasma pharmacokinetics of BI 187004 after single oral doses (LC–MS/MS)
- assay context: male, human, plasma, po, 160 mg, C24 gMean (%gCV), 160 mg single oral dose
attribute measured: concentration at 24 h
Enter the number, and then the unit.

-- ask Using the record for N#Cc1ccc2c(c1)[C@H]1CCCN(C(=O)c3ccc4[nH]cnc4c3)[C@H]1C2 , report its concentration at 24 h.
-- reply 1630 nM

###

- procedure summary: Plasma pharmacokinetics of BI 187004 after single oral doses (LC–MS/MS)
- assay context: male, human, plasma, po, 40 mg, C24 gMean (%gCV), 40 mg single oral dose
attribute measured: concentration at 24 h (µM)
Note: unit µM is implicit; provide only the numeric part.

-- ask I would be grateful if you could share the reported concentration at 24 h for N#Cc1ccc2c(c1)[C@H]1CCCN(C(=O)c3ccc4[nH]cnc4c3)[C@H]1C2 .
-- reply 0.321

###

- procedure summary: Plasma pharmacokinetics of BI 187004 after single oral doses (LC–MS/MS)
- assay context: male, human, plasma, po, 20 mg, BI 187004 plasma concentrations, 20 mg single oral, planned time 2.5 h, gMean
attribute measured: concentration at 2.5 h (nM)
Supply the numeric figure in nM, leaving out any unit text.

-- ask Quick one: concentration at 2.5 h for N#Cc1ccc2c(c1)[C@H]1CCCN(C(=O)c3ccc4[nH]cnc4c3)[C@H]1C2 ?
-- reply 843

###

- procedure summary: Plasma pharmacokinetics of BI 187004 after single oral doses (LC–MS/MS)
- assay context: male, human, plasma, po, 360 mg, BI 187004 plasma concentrations, gMean, 360 mg single oral, planned time 0.5 h
attribute measured: concentration at 0.5 h (µM)
Dear colleague, please return just the value in µM, with no unit written.

-- ask Need concentration at 0.5 h of N#Cc1ccc2c(c1)[C@H]1CCCN(C(=O)c3ccc4[nH]cnc4c3)[C@H]1C2 [BI 187004] , thanks.
-- reply 10.8

###

- procedure summary: Plasma pharmacokinetics of BI 187004 after single oral doses (LC–MS/MS)
- assay context: male, human, plasma, po, 240 mg, BI 187004 plasma concentrations, gMean, 240 mg single oral, planned time 12 h
attribute measured: concentration at 12 h (nM)
Give just the number in nM; leave the unit off.

-- ask Name the reported concentration at 12 h value associated with the molecule N#Cc1ccc2c(c1)[C@H]1CCCN(C(=O)c3ccc4[nH]cnc4c3)[C@H]1C2
-- reply 1990

Where do these numbers come from? They come from paper PMC8364686.
